Below, each entry is listed with its recorded AC50.
Target: Amine oxidase [flavin-containing] A (Homo sapiens, UniProt P21397); note: assay procedure not described here
Sequence (P21397 whole entry): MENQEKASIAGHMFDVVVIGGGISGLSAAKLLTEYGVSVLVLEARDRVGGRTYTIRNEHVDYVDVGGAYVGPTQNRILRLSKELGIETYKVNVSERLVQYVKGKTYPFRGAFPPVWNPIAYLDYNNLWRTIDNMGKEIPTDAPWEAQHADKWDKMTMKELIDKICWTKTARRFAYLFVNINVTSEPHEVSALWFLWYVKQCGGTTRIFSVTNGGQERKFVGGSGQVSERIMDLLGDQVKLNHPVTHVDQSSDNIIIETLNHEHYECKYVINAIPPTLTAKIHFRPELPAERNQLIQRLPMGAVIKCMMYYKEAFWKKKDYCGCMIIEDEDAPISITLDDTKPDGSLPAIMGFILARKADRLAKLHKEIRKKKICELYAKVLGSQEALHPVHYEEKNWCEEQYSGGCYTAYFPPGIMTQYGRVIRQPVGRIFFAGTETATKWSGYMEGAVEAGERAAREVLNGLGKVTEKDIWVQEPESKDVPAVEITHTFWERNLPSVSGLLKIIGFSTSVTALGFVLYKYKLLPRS
Type: functional

# returns recorded AC50 (system: Amine oxidase [flavin-containing] A (Homo sapiens, UniProt P21397)) for c1cnc(N2CCN(Cc3ccc4c(c3)OCO4)CC2)nc1; note: assay procedure not described here
> 30 µM

====

Parameter AC50, tested on Sodium-dependent dopamine transporter (Homo sapiens), listed per item. Note: assay procedure not described here.
Sequence (Q01959 whole entry): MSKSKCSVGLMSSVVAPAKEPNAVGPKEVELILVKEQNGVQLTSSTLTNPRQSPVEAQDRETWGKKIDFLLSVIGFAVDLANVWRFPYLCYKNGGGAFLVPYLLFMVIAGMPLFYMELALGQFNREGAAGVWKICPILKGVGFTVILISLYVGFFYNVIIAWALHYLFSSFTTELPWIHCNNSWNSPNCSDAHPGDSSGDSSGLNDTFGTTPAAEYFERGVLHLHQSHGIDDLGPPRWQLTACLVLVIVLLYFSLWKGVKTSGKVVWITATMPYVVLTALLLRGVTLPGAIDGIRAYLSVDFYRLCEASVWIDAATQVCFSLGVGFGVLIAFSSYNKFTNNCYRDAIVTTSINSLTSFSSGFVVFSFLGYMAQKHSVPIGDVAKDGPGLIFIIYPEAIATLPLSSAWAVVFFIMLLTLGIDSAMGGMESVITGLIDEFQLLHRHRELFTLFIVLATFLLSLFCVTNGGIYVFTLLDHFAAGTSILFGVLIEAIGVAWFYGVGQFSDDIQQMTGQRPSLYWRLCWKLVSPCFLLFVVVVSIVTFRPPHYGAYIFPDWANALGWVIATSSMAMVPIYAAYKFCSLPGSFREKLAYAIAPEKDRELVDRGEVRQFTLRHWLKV

Below, each entry is followed by its recorded AC50 result.
CCC1=C(C)CN(C(=O)NCCc2ccc(S(=O)(=O)NC(=O)N[C@H]3CC[C@H](C)CC3)cc2)C1=O [GLIMEPIRIDE]
> 30 µM
CC(=O)c1ccc2c(c1)N(CCCN(C)C)c1ccccc1S2 [ACEPROMAZINE]
19.5 µM
COc1cc2nc(N3CCN(C(=O)c4ccco4)CC3)nc(N)c2cc1OC [PRAZOSIN]
30 µM

Need AC50 of CCC(=O)NCC[C@@H]1CCc2ccc3c(c21)CCO3 [RAMELTEON] , thanks.
> 30 µM

Lookup CC(C)C[C@H]1C(=O)N2CCC[C@H]2[C@]2(O)O[C@](NC(=O)[C@@H]3C=C4c5cccc6[nH]c(Br)c(c56)C[C@H]4N(C)C3)(C(C)C)C(=O)N12 [BROMOCRIPTINE]
> 30 µM

Lookup COCCCN1CCC(NC(=O)c2cc(Cl)c(N)c3c2OCC3)CC1 [PRUCALOPRIDE]
> 30 µM

Lookup CC(CNC(=O)c1ccccc1)C(=O)OCC(=O)[C@@]12OC(C)(C)O[C@@H]1C[C@H]1[C@@H]3CCC4=CC(=O)C=C[C@]4(C)[C@@]3(F)[C@@H](O)C[C@@]12C (some centres not stated) [TRIAMCINOLONE BENETONIDE]
> 30 µM

====

Parameter AC50, tested on Cannabinoid receptor 1 (Homo sapiens), listed per item. Note: assay procedure not described here.
Sequence (P21554 whole entry): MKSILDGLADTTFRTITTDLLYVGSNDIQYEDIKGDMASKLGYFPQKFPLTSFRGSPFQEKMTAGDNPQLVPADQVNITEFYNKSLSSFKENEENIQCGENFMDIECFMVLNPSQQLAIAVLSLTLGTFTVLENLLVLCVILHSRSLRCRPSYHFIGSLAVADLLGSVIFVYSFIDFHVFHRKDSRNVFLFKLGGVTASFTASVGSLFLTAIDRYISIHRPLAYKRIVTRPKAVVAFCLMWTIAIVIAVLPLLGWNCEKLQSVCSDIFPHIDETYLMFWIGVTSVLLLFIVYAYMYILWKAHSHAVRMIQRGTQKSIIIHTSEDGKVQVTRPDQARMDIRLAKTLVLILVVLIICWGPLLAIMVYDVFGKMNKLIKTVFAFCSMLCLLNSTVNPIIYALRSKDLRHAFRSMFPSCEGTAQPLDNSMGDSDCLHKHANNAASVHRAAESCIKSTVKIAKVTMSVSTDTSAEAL

Below, each entry is followed by its recorded AC50 result.
CO[C@@H]1[C@@H](O[C@@H]2O[C@H](C)[C@@H](O[C@H]3C[C@@](C)(O)[C@@H](OC(=O)CC(C)C)[C@H](C)O3)[C@H](N(C)C)[C@H]2O)[C@@H](CC=O)C[C@@H](C)[C@@H](O)/C=C/C=C/C[C@@H](C)OC(=O)C[C@H]1OC(C)=O
> 10 µM
CC[C@@H]1C(=O)OC[C@@H]1Cc1cncn1C
16.1 µM

Need AC50 of C#C[C@]1(O)CC[C@H]2[C@@H]3CCC4=Cc5oncc5C[C@]4(C)[C@H]3CC[C@@]21C , thanks.
> 10 µM
